Can you tell me viability at 10 µM for the items I'm about to list?
- Tested on: Colon cancer organoid
- protocolDetails: Targeting of F14 CAF-induced therapy resistance in O23 CRC organoid-stroma co-culture. Cell viability is reported with Gefitinib.
- Type: functional, Homo sapiens
- testConditions: Homo sapiens, Concentration 10 uM; read-out: Cell Viability
# value in %; strip the unit string

// sample "c1ccc(N2CCN(Cc3nc4ccccc4[nH]3)CC2)nc1" , its viability at 10 µM was 66.8

// sample "COc1c(C)cc(NC(=O)c2nn(Cc3ccc(F)cc3)c3c2CN(C(=O)c2ccc[nH]2)C[C@]3(C)C(N)=O)cc1C" , its viability at 10 µM was 66.4

// sample "Cc1cc(CN)cc(C)c1-c1ncn(C)c1-c1cncn1C" , its viability at 10 µM was 73.9

// sample "Cc1sc2c(c1C)C(c1ccc(Cl)cc1)=N[C@H](CC(=O)OC(C)(C)C)c1nnc(C)n1-2" , its viability at 10 µM was 72

// sample CN(C)[C@H]1CCN(c2cc(-c3ccccc3)nc3ccnn23)C1 [(S)-ZINC-3573] , its viability at 10 µM was 55.6

// sample "Cn1nc(C(=O)NCc2ccc(C(=O)O)cc2)cc1-c1ccc2[nH]ccc2c1" , its viability at 10 µM was 52.8

// sample "Nc1nc(NCc2ccccc2)nc(-c2ccccc2CO)n1" , its viability at 10 µM was 71.3

// sample "CCc1ccccc1C(=O)Nc1n[nH]c2c(C)c(F)c(C3C(C#N)=C(C)N(C)C(C)=C3C#N)cc12" , its viability at 10 µM was 30.6

// sample "COc1ccccc1S(=O)(=O)Nc1ccc2c(c1)CN(C)C(=O)N2" , its viability at 10 µM was 53.9

// sample "CCCc1cc(C)[nH]c(=O)c1CNC(=O)c1cc(-c2ccnc(N3CCN(C)CC3)c2)cc2c1cnn2C(C)C" , its viability at 10 µM was 74.3

// sample "CN(C)C(=O)c1ccc(-c2cc(C(=O)N(C)C3CCCC3)no2)cc1O" , its viability at 10 µM was 55.9

// sample "CCOC(=O)Nc1cc(-c2ccc(C)c(NS(C)(=O)=O)c2)nn2c(C)nnc12" , its viability at 10 µM was 63.4

// sample "CN1CCN(C(=O)C(C)(C)c2ccc(C(=O)Nc3cn4cc(-c5cc(C(C)(C)C)cc(C(C)(C)C)c5)ccc4n3)cc2)CC1" , its viability at 10 µM was 28.2

// sample "CC1=C(C#N)C(c2ccc3[nH]nc(C)c3c2)C(C#N)=C(C)N1" , its viability at 10 µM was 22.9

// sample "CCOc1ccc(S(=O)(=O)Nc2ccc(Cl)cc2C#Cc2cnc(C(=O)O)cc2OC)c2ncccc12" , its viability at 10 µM was 46.2

// sample "Cc1c(Oc2ccc(F)cc2)c(OC(C)C)nn1-c1ccc(C2CC2)cn1" , its viability at 10 µM was 86.4

// sample "C[C@H](NC(=O)Nc1cc2[nH]ncc2c(CO)n1)c1ccccn1" , its viability at 10 µM was 40.9

// sample "CN(C(=O)c1cnn2cccnc12)c1cc2c(cc1N1CCOCC1)C(=O)N(C[C@@H](F)C(C)(C)O)C2" , its viability at 10 µM was 39.2

// sample "CC(C)NC(=O)N1CC[C@H](NC2=Nc3cc(F)ccc3N(CC(F)F)c3ccc(Cl)cc32)C1" , its viability at 10 µM was 61.4

// sample "CNCCN1CCC(OCc2ccccc2)CC1" , its viability at 10 µM was 59.5

// sample "CC1(C)C(N)=Nc2cc(OCCCN3Cc4ccc(OCCc5cn(CC(=O)N6CCC(CCN7CCCC7)CC6)nn5)cc4C3)c(OCC3CC3)cc21" , its viability at 10 µM was 9.03

// sample "Cc1cnc(-c2cc(Cl)ccc2F)cc1-n1c(=O)n(CC(N)=O)c2cnccc21" , its viability at 10 µM was 43.8

// sample "CC1CCN(c2ccnc(NCc3cn(C)cn3)n2)CC1" , its viability at 10 µM was 81.4

// sample "CCNC(=O)c1cc2c(N3CCOC[C@@H]3C)ccnc2n1C" , its viability at 10 µM was 38.3

// sample "Cc1noc([C@H]2C[C@@H](c3ccc(C(F)(F)F)cc3)CN(C(=O)N3CCS(=O)(=O)C3)C2)n1" , its viability at 10 µM was 58

// sample "COc1ccc2c(c1)O[C@@H](c1ccc(OC)c(OC)c1)C[C@H]2NC(=O)C1(c2ccc3c(c2)OC(F)(F)O3)CC1" , its viability at 10 µM was 42.2

// sample "CC1=C(C)C(=O)C(C(C)(C)CC(=O)N(CCCCSC[C@H]2O[C@@H](n3cnc4c(N)ncnc43)[C@H](O)[C@@H]2O)Cc2cccc(-c3ccc(Cl)cc3)c2)=C(C)C1=O" , its viability at 10 µM was 57.2

// sample "O=C(c1ccc(C(=O)N2CCC(N3CCCC3)CC2)c(Nc2ccccc2)c1)N1CCC(N2CCCC2)CC1" , its viability at 10 µM was 57.4

// sample "CN(C(=O)c1ccccc1)c1cc(N(C)c2ccc3c(c2)CCc2ccc(C(=O)NCCN4CCOCC4)cc2C3=O)ccc1F" , its viability at 10 µM was 83.7

// sample "CN(C)C(=O)N1CC[C@H](NC2=Nc3cc(F)ccc3N(CC(F)F)c3ccc(Cl)cc32)C1" , its viability at 10 µM was 43.7

// sample "CC(=O)N1CCC(c2ccc(C(=O)NC3=NCCN3)cc2C(F)(F)F)CC1" , its viability at 10 µM was 54.5

// sample "Cn1nc(C(F)(F)F)cc1-c1cnc(N2CCc3cc(S(=O)(=O)Nc4c(F)cc(Cl)cc4F)cc(N4CCCC4=O)c32)nc1" , its viability at 10 µM was 65.7

// sample "O=C(NNS(=O)(=O)c1ccccc1F)c1cc(F)cc(-c2ccccn2)c1" , its viability at 10 µM was 40.5

// sample "CC(=O)Nc1ncc(CN2CCC[C@H](Cc3cc(C)nc(C)c3)C2)s1" , its viability at 10 µM was 88.8

// sample "Cc1c(N2CCCC2)nc2ccc(Br)cc2c1C(=O)NC[C@H](CCC(=O)O)c1ccccc1Cl" , its viability at 10 µM was 42.2
